Quick reference: viability at 28.5 h, 10 µM of the listed items.
Assay: in vitro
Details: human, hela cells, % viability

MOLECULE | viability at 28.5 h, 10 µM [%]
COc1cc(NC(=S)P(=O)(c2ccccc2)c2ccccc2)c(OC)cc1Cl [CBK021976] | 95.6
O=C(NCc1ccco1)c1cc(Br)cnc1N1CCOCC1 [CBK076268] | 94.6
CC(CN(C)C(=O)c1nc(=O)[nH][nH]1)Oc1ccc(Cl)c(Cl)c1 (stereo not shown) [CBK306471] | 87.9
Cc1nn(C)c(C(=O)NNC(=S)Nc2ccc(S(N)(=O)=O)cc2)c1Br [CBK266963] | 92.5
Cc1nn(CCC#N)c(C)c1[C@@H]1C=C[C@@H](NC(=O)NCc2ccccc2)C1 [CBK289174] | 96.8
COCCNc1nc(-c2ccc3c(c2)OCO3)ccc1C(=O)N(C)CCN(C)C [CBK105915] | 103
COc1ccc(Br)c(C(CO)N(C)C(=O)CC#N)c1 (stereo not shown) [CBK304240] | 88
C=CCn1c(-c2sc(NC(=O)Cn3c(=O)n(CCC)c4ccccc43)nc2C)n[nH]c1=S [CBK297890] | 97.7
COc1ccc2nc(Nc3nc4c(s3)C(=O)CC(C)(C)C4)sc2c1 [CBK287481] | 90.5
COc1ccc(-c2cnc(N)c(NCCCN3CCOCC3)n2)c(OC)c1OC [CBK063676] | 113
CC(CN(C)C(=O)c1cn[nH]c1C1CCNC1)Oc1ccc(Cl)c(Cl)c1 (stereo not shown) [CBK304786] | 91.1
OCCSCc1ccc2nonc2c1 [CBK020617] | 107
Nc1nc2ccccc2n1/N=C/c1ccc([N+](=O)[O-])cc1 [CBK262239] | 88
COCCNc1nc(-c2cncc(OC)c2)cnc1N [CBK063606] | 103
N#Cc1sc(NC(=O)c2cccc(Br)c2)nc1Cl [CBK017468] | 45.4
CC(C)[C@@H](CO)n1c(=O)[nH]c2ncc(-c3ccc(N4CCOCC4)cc3)nc21 [CBK064770] | 110
O=C(O)CCc1ccc(-c2ccc(N3CCN(CCN4CCCC4)CC3)nc2)cc1 [CBK037796] | 103
CN1CCN(S(=O)(=O)c2ccc(Oc3ccc([N+](=O)[O-])cc3)cc2)CC1 [CBK262248] | 105
O=C(O)CC1SC(N/N=C/c2ccc(-c3ccc(Cl)cc3[N+](=O)[O-])o2)=NC1=O (stereo not shown) [CBK264507] | 108
O=C(Nc1c(F)cccc1F)n1ccc2c(N3CCNCC3)cccc21 [CBK003745C] | 89.5
CCn1c(=N)c(C(=O)NCCOC)cc2c(=O)n3ccccc3nc21 [CBK287605] | 89.5
O=S(=O)(Nc1cccnc1N1CCOCC1)c1cc(C(F)(F)F)cc(C(F)(F)F)c1 [CBK062306] | 122
CCOC(=O)CC(O)(c1ccc(OC)cc1)c1cc(C)no1 (stereo not shown) [CBK023133] | 107
COc1cccc(C(=O)c2snc(Nc3ccc(F)cc3)c2N)c1 [CBK269173] | 117
CCN1CC(C(=O)N2CC(O)CC2c2cc(F)ccc2F)CC1=O (stereo not shown) [CBK304031] | 103
OC1CCN(Cc2c(-c3cccs3)[nH]c3ncccc23)CC1 [CBK283318] | 79.9
Cc1cc(O)c(C(=O)Nc2cccc(Cl)c2)c(=O)n1Cc1ccccn1 [CBK287729] | 99.3
O=C1c2ccccc2C(=O)N1Cc1nc2ccccc2c(=O)n1CCCN1CCOCC1 [CBK268463] | 96.1
Cn1c(SCc2c(Cl)cccc2[N+](=O)[O-])nnc1-c1ccc(NC(=O)c2ccccc2Cl)cc1 [CBK264983] | 81.1
O=S(=O)(c1ccc(C(F)(F)F)cc1Cl)N1CCN(Cc2cccc(Br)c2)CC1 [CBK063163] | 83.7
FC(F)(F)Oc1ccc(-n2cc(-c3ccsc3)nn2)cc1 [CBK113096] | 92.7
COc1ccc(C)cc1C1(CNC(=O)C2CCCC2N)CCOCC1 (stereo not shown) [CBK304308C] | 108
O=C(c1cc(O)nc2ccccc12)N1CCN(S(=O)(=O)N2CCCC2)CC1 [CBK297898] | 88.6
CCCn1c(SCC(=O)N2c3ccc(F)cc3CCC2C)nnc1-c1cccnc1 (stereo not shown) [CBK059187] | 94
CCN(C)c1c(C)nc2c(OCc3cccc(Cl)c3)cccn12 [CBK147310] | 100
Cc1cc(C)c2c(n1)oc1c(Cl)ncnc12 [CBK008822] | 93
Cc1ccc2cc(CN(Cc3ccc4c(c3)OCO4)Cc3nnnn3Cc3ccco3)c(=O)[nH]c2c1 [CBK108949] | 93.9
